# System: SN12C renal
# assay-explanation: NCI tumour cell line growth inhibition, 48 h
TGI values for the molecules below.

Worked cases, TGI given:
CC1=C(C(=O)Nc2ccc(F)c(Cl)c2)C(c2ccc(Cl)cc2)NC(=O)N1 (configuration not stated) | 32.2 µM
CO[C@]1(c2ccc([N+](=O)[O-])cc2)Oc2ccccc2C(=O)[C@@]1(Nc1ccc(C=O)cc1)OC | > 10 µM
CCOC(=O)C(Sc1ccccc1)c1c(OC)cc(=O)oc1/C=[N+](/[O-])c1ccc(N(C)C)cc1 (configuration not stated) | 32 µM
CC1=C(C(=O)OCCO[N+](=O)[O-])C(c2cccc([N+](=O)[O-])c2)C(C(=O)OC(C)C)=C(C)N1 (configuration not stated) | 36.4 µM
CNC(=O)c1cc(Oc2ccc3nc(NC(=O)Nc4ccc(Cl)c(C(F)(F)F)c4)sc3c2)ccn1 | > 100 µM
NC(=O)C(=CNC(N)=S)C(N)=O | > 100 µM

stdin: Supply reported TGI belonging to this molecule: NC1CCC(Nc2nc(NCc3ccc(-c4ccco4)nc3)c3ncn(C4CCCC4)c3n2)CC1 (configuration not stated)
stdout: 11.6 µM

stdin: Supply reported TGI belonging to this molecule: `Cc1nc2c(nc1C)C(=O)c1ccccc1C2=O`
stdout: 6.4 µM

stdin: Supply reported TGI belonging to this molecule: COc1cc(NC(C)c2ccc3c(c2)OCCO3)cc(OC)c1OC (configuration not stated)
stdout: > 100 µM

stdin: Supply reported TGI belonging to this molecule: O=C(O)CCC(NC(=O)c1ccc(OCc2nc3cc(C(F)(F)F)ccc3nc2-c2ccccc2)cc1)C(=O)O (configuration not stated)
stdout: > 100 µM

stdin: Supply reported TGI belonging to this molecule: `c1cc2c(cc1NC1=NCCO1)CCC2`
stdout: > 10 µM

---

# System: DU-145 prostate
# assay-explanation: NCI tumour cell line growth inhibition, 48 h
TGI values for the molecules below.

Worked cases, TGI given:
CS(=O)(=O)OCCCCOS(=O)(=O)CF | > 100 µM
CCCN(CCC)CCc1ccc(OC2=CCN(C)CC2)cc1 | > 100 µM
C=Cc1nc2c(Cl)ncnc2n1Cc1ccccc1 | 7.2 µM
c1ccc(C(C2=Nc3cccc4cccc(c34)N2)c2ccccc2)cc1 | 91.3 µM
COc1cc2c(c(OC)c1O)C(=O)C(OC)C(c1ccc(O)c(O)c1)O2 (stereo not given) | > 100 µM
Cn1c(=O)c2c3ccccc3n(C)c2n(C)c1=O | > 100 µM
CCN(CC)c1ccc2cc(C(N)=O)c(=N)oc2c1 | > 100 µM
CCOC(=O)Nc1nc2ccc(OCC)cc2s1 | > 100 µM

Next up:
stdin: Supply reported TGI belonging to this molecule: CN(C)c1ccc(C2CC(c3ccc4ccccc4c3O)=NN2)cc1 (stereo not given)
stdout: > 100 µM

---

# System: MDA-MB-435
# assay-explanation: NCI tumour cell line growth inhibition, 48 h
TGI values for the compounds below.
Give the value in µM but do not write µM after it.

Worked cases, TGI given:
COc1cc(/C=C/c2cc(/C=C/c3ccc(O)c(OC)c3)n(C(=O)Nc3ccc(F)cc3)n2)ccc1O | 0.561
C=C(CNCCO)[C@@H]1CC[C@]2(CO)CC[C@]3(C)[C@H](CC[C@@H]4[C@@]5(C)CCC(N)C(C)(C)[C@@H]5CC[C@]43C)[C@@H]12 (stereo not given in full) | 3.3
Cc1cc2nc(C(Cl)Cl)nc(-c3ccc(Cl)cc3)n2n1 | 2.79
c1ccc(C(C2=Nc3cccc4cccc(c34)N2)c2ccccc2)cc1 | 66.1
COc1cccc(-c2nc3ccccc3c(=O)[nH]2)c1 | 28.1

stdin: Supply reported TGI belonging to this compound: `O=C(NCCNc1nccc(-c2c(-c3cccc(O)c3)nc3sccn23)n1)c1ccccc1O`
stdout: 12.1

stdin: Supply reported TGI belonging to this compound: CC(C)c1ccc(C(C)C(=O)N(CC2=C(C(C)c3ccccn3)c3ccccc3C2)C(C)C)cc1 (stereo not given)
stdout: 55.6

stdin: Supply reported TGI belonging to this compound: CC(=O)Oc1c(C)c2c(c3ncccc13)OC(C)C2 (stereo not given)
stdout: 19

stdin: Supply reported TGI belonging to this compound: `S=C(N1CCN(c2ccc(Cl)c(Cl)c2)CC1)N1CCN(c2ccc(Cl)c(Cl)c2)CC1`
stdout: 29

stdin: Supply reported TGI belonging to this compound: `COc1cc(-c2ccc(Br)[nH]2)[nH]c1C=NCC(C)C`
stdout: 4.54

stdin: Supply reported TGI belonging to this compound: `CN(C)CCCNC1=C(Cl)C(=O)c2ccccc2C1=O`
stdout: 3.64

stdin: Supply reported TGI belonging to this compound: `CC(=O)[O][Hg][c]1c(N)c(C)cc(C)c1F`
stdout: 2.96

stdin: Supply reported TGI belonging to this compound: NC1CC(=O)c2cscc21 (stereo not given)
stdout: 64.2

stdin: Supply reported TGI belonging to this compound: `O=[N+]([O-])c1cnc(Sc2ccncn2)s1`
stdout: 8.76

stdin: Supply reported TGI belonging to this compound: `CCOC(=O)Nc1nc2ccc(OCC)cc2s1`
stdout: 3.71

stdin: Supply reported TGI belonging to this compound: `O=C(CCl)N1c2ccccc2Oc2ccc3ccccc3c21`
stdout: 1.88

stdin: Supply reported TGI belonging to this compound: O=C(C1OC1c1ccc(Cl)cc1)C12CC3CC(CC(C3)C1)C2 (stereo not given)
stdout: 33.1

stdin: Supply reported TGI belonging to this compound: `O=[N+]([O-])C(=C(Cl)Cl)C(Cl)=C(Cl)Cl`
stdout: 1.07

stdin: Supply reported TGI belonging to this compound: `CC1=NN(c2nc(N)nc(/C(C#N)=C/c3ccccc3O)n2)C(C)(C)C1`
stdout: 32.9
